Biological target: Melanocortin receptor 4 (Homo sapiens, UniProt P32245)
Sequence (P32245 whole entry): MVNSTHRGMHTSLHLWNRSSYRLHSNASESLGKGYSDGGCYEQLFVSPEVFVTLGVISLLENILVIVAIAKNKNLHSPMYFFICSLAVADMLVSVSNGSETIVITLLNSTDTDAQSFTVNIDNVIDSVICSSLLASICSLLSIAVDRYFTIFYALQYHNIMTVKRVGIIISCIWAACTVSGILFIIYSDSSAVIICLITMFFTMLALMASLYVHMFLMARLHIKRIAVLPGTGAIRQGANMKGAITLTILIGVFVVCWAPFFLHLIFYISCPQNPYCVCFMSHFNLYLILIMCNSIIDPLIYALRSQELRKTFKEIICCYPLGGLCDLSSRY
Assay: Agonist activity at human MC4R expressed in low doxycyclin-treated HEK293 cell membranes assessed as increase in cAMP production after 45 mins by HTRF method
Type: functional, cell-based
property-label: Activity (%)
Give bare numbers, in %.

Reference set, count: 3
[[record]]
record_smiles = "CC[C@H](C)[C@@H]1NC(=O)[C@@H]2CCCN2C(=O)[C@@H]2CCCN2C(=O)[C@H]([C@@H](C)CC)NC(=O)[C@H](CO)NC(=O)[C@H](C)NC(=O)[C@H]([C@H](C)O)NC(=O)[C@@H]2CSSC[C@H](NC1=O)C(=O)N(C)[C@@H](Cc1cnc[nH]1)C(=O)N[C@H](Cc1ccccc1)C(=O)N(C)[C@@H](CCCNC(=N)N)C(=O)N(C)[C@@H](Cc1c[nH]c3ccccc13)C(=O)N[C@@H](CCCNC(=N)N)C(=O)N2"
meas_value = 100

[[record]]
record_smiles = "CC[C@H](C)[C@@H]1NC(=O)[C@@H]2CCCN2C(=O)[C@H](Cc2c[nH]c3ccccc23)NC(=O)[C@H](CCCNC(=N)N)NC(=O)[C@@H](Cc2ccccc2)NC(=O)[C@H](Cc2cnc[nH]2)NC(=O)[C@H]([C@@H](C)O)NC(=O)[C@@H]2CSSC[C@H](NC1=O)C(=O)N[C@@H](Cc1ccccc1)C(=O)N1CCC[C@H]1C(=O)N[C@@H](CC(=O)O)C(=O)NCC(=O)N[C@@H](CCCNC(=N)N)C(=O)N2"
meas_value = 100

[[record]]
record_smiles = "CC[C@H](C)[C@@H]1NC(=O)[C@@H]2CCCN2C(=O)[C@@H]2CCCN2C(=O)[C@H]([C@@H](C)CC)NC(=O)[C@H](CO)NC(=O)[C@H](C)NC(=O)[C@H]([C@H](C)O)NC(=O)[C@@H]2CSSC[C@H](NC1=O)C(=O)N(C)[C@@H](Cc1cnc[nH]1)C(=O)N[C@H](Cc1ccccc1)C(=O)N(C)[C@@H](CCCNC(=N)N)C(=O)N[C@@H](Cc1c[nH]c3ccccc13)C(=O)N[C@@H](CCCNC(=N)N)C(=O)N2"
meas_value = 100


Next:
Q) Form field - read-out: Activity; system: Melanocortin receptor 4 (Homo sapiens, UniProt P32245); submitted item: `CC[C@H](C)[C@@H]1NC(=O)[C@@H]2CCCN2C(=O)[C@H](Cc2c[nH]c3ccccc23)NC(=O)[C@H](CCCNC(=N)N)NC(=O)[C@@H](Cc2ccccc2)NC(=O)[C@H](Cc2cnc[nH]2)N(C)C(=O)[C@H]([C@@H](C)O)NC(=O)[C@@H]2CSSC[C@H](NC1=O)C(=O)N[C@@H](Cc1ccccc1)C(=O)N1CCC[C@H]1C(=O)N[C@@H](CC(=O)O)C(=O)NCC(=O)N[C@@H](CCCNC(=N)N)C(=O)N2`
A) 100

----------
For each entry below, report its inhibition value.
Target: Melanocortin receptor 3 (Homo sapiens)
Sequence (P41968 whole entry, the tested form may be a part): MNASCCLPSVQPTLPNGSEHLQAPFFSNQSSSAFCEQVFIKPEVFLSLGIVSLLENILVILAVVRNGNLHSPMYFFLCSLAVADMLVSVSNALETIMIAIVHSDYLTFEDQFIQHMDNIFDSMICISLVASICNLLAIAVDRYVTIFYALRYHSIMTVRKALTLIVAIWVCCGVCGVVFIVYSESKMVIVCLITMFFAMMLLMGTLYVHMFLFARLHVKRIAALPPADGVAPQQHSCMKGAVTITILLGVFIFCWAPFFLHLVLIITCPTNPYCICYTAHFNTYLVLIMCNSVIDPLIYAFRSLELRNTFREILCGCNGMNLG
Test: Displacement of [125I]-NDP-alpha-MSH from human MC3R LBD expressed in HEK293 cell membranes incubated for 16 to 23 hrs in dark by scintillation proximity assay
Set-up: concentration or dose not given beside the values
Conditions: concentration not given here
One number for each entry, in %.

Reference set, count: 2
[[record]]
record_smiles = "CC[C@H](C)[C@@H]1NC(=O)[C@@H]2CCCN2C(=O)[C@@H]2CCCN2C(=O)[C@H]([C@@H](C)CC)NC(=O)[C@H](CO)NC(=O)[C@H](C)NC(=O)[C@H]([C@H](C)O)NC(=O)[C@@H]2CSSC[C@H](NC1=O)C(=O)N(C)[C@@H](Cc1cnc[nH]1)C(=O)N[C@H](Cc1ccccc1)C(=O)N[C@@H](CCCNC(=N)N)C(=O)N(C)[C@@H](Cc1c[nH]c3ccccc13)C(=O)N[C@@H](CCCNC(=N)N)C(=O)N2"
unit = "%"
meas_value = 100

[[record]]
record_smiles = "CC[C@H](C)[C@@H]1NC(=O)[C@@H]2CCCN2C(=O)[C@@H]2CCCN2C(=O)[C@H]([C@@H](C)CC)NC(=O)[C@H](CO)NC(=O)[C@H](C)NC(=O)[C@H]([C@H](C)O)NC(=O)[C@@H]2CSSC[C@H](NC1=O)C(=O)N[C@@H](Cc1cnc[nH]1)C(=O)N[C@H](Cc1ccccc1)C(=O)N(C)[C@@H](CCCNC(=N)N)C(=O)N(C)[C@@H](Cc1c[nH]c3ccccc13)C(=O)N[C@@H](CCCNC(=N)N)C(=O)N2"
unit = "%"
meas_value = 100


Next:
Q) I am curious: what inhibition value has been reported for `CC[C@H](C)[C@@H]1NC(=O)[C@@H]2CCCN2C(=O)[C@@H]2CCCN2C(=O)[C@H]([C@@H](C)CC)NC(=O)[C@H](CO)NC(=O)[C@H](C)NC(=O)[C@H]([C@H](C)O)NC(=O)[C@@H]2CSSC[C@H](NC1=O)C(=O)N[C@@H](Cc1cnc[nH]1)C(=O)N[C@H](Cc1ccccc1)C(=O)N[C@@H](CCCNC(=N)N)C(=O)N[C@@H](Cc1c[nH]c3ccccc13)C(=O)N[C@@H](CCCNC(=N)N)C(=O)N2` ?
A) 100
